target: human P2X3 receptor (Homo sapiens (Human)); experiment: Evaluation of human P2X3 receptor inhibitory activity (ATP-induced Fluo-3 fluorescence, FDSS 3000); details: C6BU-1 cell transfected with human P2X3 receptor gene
Sequence (P56373 whole entry): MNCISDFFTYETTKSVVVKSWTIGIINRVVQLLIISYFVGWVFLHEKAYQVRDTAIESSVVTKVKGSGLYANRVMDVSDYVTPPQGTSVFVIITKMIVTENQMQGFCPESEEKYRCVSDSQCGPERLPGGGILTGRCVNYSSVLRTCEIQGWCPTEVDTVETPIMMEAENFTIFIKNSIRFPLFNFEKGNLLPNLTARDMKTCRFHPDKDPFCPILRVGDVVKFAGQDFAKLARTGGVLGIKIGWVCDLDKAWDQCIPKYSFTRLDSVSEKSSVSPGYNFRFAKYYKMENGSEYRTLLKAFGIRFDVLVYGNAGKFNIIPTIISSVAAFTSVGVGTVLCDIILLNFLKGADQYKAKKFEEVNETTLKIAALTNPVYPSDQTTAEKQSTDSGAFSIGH
pIC50: −log10 of the molar value.
Label met when pIC50 is at or above 7; otherwise label not met.

*Q* Please check the record CC(C)Oc1ccc(Nc2ncc(NC(=O)C3CCOCC3)c(=O)n2Cc2ccc(Cl)cc2)cc1 [I-235] and state if its pIC50 is at or above 7.
*A* met

*Q* Please check the record CC(C)Oc1ccc(Nc2ncc(NC(=O)CCC(=O)O)c(=O)n2Cc2ccc(Cl)cc2)cc1F [I-231] and state if its pIC50 is at or above 7.
*A* not met

*Q* Please check the record CC(C)Oc1ccc(Nc2ncc(C(=O)O)c(=O)n2Cc2ccc(Cl)cc2)cc1Cl [I-129] and state if its pIC50 is at or above 7.
*A* not met

*Q* Please check the record Cc1ncc(Oc2ccc(Nc3ncc(NC(=O)C4CCOCC4)c(=O)n3Cc3ccc(Cl)cc3)cc2)cc1F [I-313] and state if its pIC50 is at or above 7.
*A* met

*Q* Please check the record CNc1ncc(Nc2cccc(C(F)(F)F)c2)c(Cc2ccc(Cl)cc2)n1 [I-190] and state if its pIC50 is at or above 7.
*A* not met

*Q* Please check the record Cc1nc2ccc(Nc3nc(=O)c(C(=O)NC4CCOCC4)cn3Cc3ccc(Cl)cc3)cc2s1 [I-286] and state if its pIC50 is at or above 7.
*A* met

*Q* Please check the record COC(=O)C(C)(C)Cn1c(=O)cc(Nc2cccc(C(F)(F)F)c2)n(Cc2ccc(Cl)cc2)c1=O [I-107] and state if its pIC50 is at or above 7.
*A* met

*Q* Please check the record CC(C)Oc1ccc(Nc2cc(=O)n(Cc3ccccc3)cc2Cc2ccc(Cl)cc2)cc1Cl [I-067] and state if its pIC50 is at or above 7.
*A* not met

*Q* Please check the record Cc1ccc(Oc2ccc(Nc3ncc(NC(=O)C4COC(C)(C)OC4)c(=O)n3Cc3ccc(Cl)cc3)cc2)cn1 [I-294] and state if its pIC50 is at or above 7.
*A* met

*Q* Please check the record Cc1nc2ccc(Nc3ncc(NC(=O)C(CO)CO)c(=O)n3Cc3ccc(Cl)cc3)cc2s1 [I-361] and state if its pIC50 is at or above 7.
*A* met

*Q* Please check the record CC(C)Oc1ccc(Nc2ncc(NC(=O)C(C)(C)O)c(=O)n2Cc2ccc(Cl)cc2)cc1F [I-268] and state if its pIC50 is at or above 7.
*A* met

*Q* Please check the record Cc1nc(Nc2ccc(OC(C)C)cc2)n(Cc2ccc(Cl)cc2)c(=O)c1Cc1ccccc1 [I-330] and state if its pIC50 is at or above 7.
*A* not met

*Q* Please check the record CC(C)Oc1ccc(Nc2ncc(NC(N)=O)c(=O)n2Cc2ccc(Cl)cc2)cc1F [I-277] and state if its pIC50 is at or above 7.
*A* met

*Q* Please check the record CCn1c(=O)cc(Nc2ccc(Oc3cncc(C(=O)O)c3)cc2)n(Cc2ccc(Cl)cc2)c1=O [I-315] and state if its pIC50 is at or above 7.
*A* met

*Q* Please check the record CC(C)Oc1ccc(Nc2ncc(Br)c(=O)n2Cc2ccc(Cl)cc2)cc1F [I-257] and state if its pIC50 is at or above 7.
*A* not met

*Q* Please check the record CC(C)Oc1ccc(Nc2cc(=O)n(C[C@H](C)C(=O)O)c(=O)n2Cc2ccc(Cl)cc2)nc1 [I-217] and state if its pIC50 is at or above 7.
*A* not met

*Q* Please check the record Cc1cc(Nc2cc(=O)n(C[C@H](C)C(=O)O)c(=O)n2Cc2ccc(Cl)cc2)ccc1OC(C)C [I-215] and state if its pIC50 is at or above 7.
*A* met

*Q* Please check the record CC(C)Oc1ccc(Nc2ncc(C(=O)NC(CO)CO)c(=O)n2Cc2ccc(Cl)cc2)cc1F [I-153] and state if its pIC50 is at or above 7.
*A* met

*Q* Please check the record Cc1nc2ccc(Nc3nc(=O)c(C(=O)NC(C)C)cn3Cc3ccc(Cl)cc3)cc2s1 [I-307] and state if its pIC50 is at or above 7.
*A* met
